# METHOD DESCRIPTION: clinical
# CONDITION SET: human, in vivo, po, 3.5 mg
QUANTITY NAME: Cmax

compound="O=C(CC1NCCCC1O)Cn1cnc2cc(Br)c(Cl)cc2c1=O (racemic) [halofuginone]" result="~7.4 nM"

###

# Tested on: authentic SARS-CoV-2
# METHOD DESCRIPTION: microbe, parasite or virus in culture
# Format: cell-based
# CONDITION SET: Severe acute respiratory syndrome coronavirus 2, Vero C1008; Vero E6; read-out: IC50 of SARS-CoV-2 infectivity, enantiomer comparison
QUANTITY NAME: IC50 (nM)

molecule="O=C(CC1NCCCC1O)Cn1cnc2cc(Br)c(Cl)cc2c1=O (racemic)" result=28
